System: MRCKA
Details: concentration: 1 μM, replicates: in singlicate; n = 1
Would you please tag the item y when its %Inh is 1% or above, and n when it is below?

Smiles Notation: COc1cccc(-c2cc(-c3c[nH]nc3-c3ccccn3)ccn2)c1
Label Value: y

Smiles Notation: CC(C)(C)c1ccc(C(=O)Nc2cn3cc(Cl)ccc3n2)cc1
Label Value: n

Smiles Notation: CN(C)CCN(C)C(=O)c1cc(-c2ccncc2)c(-c2ccc(Cl)c(O)c2)o1.Cl.Cl
Label Value: y

Smiles Notation: COC(=O)c1c(-c2ccccc2)c2cc(OC)ccc2c(=O)n1Cc1ccccc1
Label Value: n

Smiles Notation: C[C@@H]1CCCCN1c1cc(-c2ccc3c(N)n[nH]c3c2)nc(N)n1
Label Value: y

Smiles Notation: Cl.NC(=O)c1cccc(Nc2nccc(Nc3ccc(Oc4cccc(Cl)c4)c(Cl)c3)n2)c1
Label Value: y

Smiles Notation: Cc1ccc(NC(=O)Nc2cc(C(C)(C)C)nn2-c2ccccc2)cc1
Label Value: y

Smiles Notation: O=C1NC(=O)C(N2CCc3ccccc32)=C1c1ccccc1Cl
Label Value: n

Smiles Notation: Cc1csc(-c2nc(Nc3ccncc3)c3ccccc3n2)n1
Label Value: n

Smiles Notation: Fc1cccc(COc2nnc(-c3ccc4c(c3)CCO4)o2)c1
Label Value: n

----------
Tested on: BLK;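 further: kd values determined as follow-up on hits from a single-replicate KINOMEscan panel screen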
pKd: −log10 of the molar value.

Smiles Notation: Cc1ccc(C(=O)Nc2ccc(Nc3ccnc4cc(-c5ccccn5)ccc34)cc2O)cc1.Cl
pKd: 7.20

----------
Test system: SgK110
Conditions: concentration: 1 μM, replicates: in singlicate; n = 1
The following compounds are listed with their measured %Inh values.

Compound: Cc1cccc(-c2nc(-c3ccc(S(C)(=O)=O)cc3)sc2-c2ccnc(NCCc3ccccc3)c2)c1
Target Or System: SgK110
%Inh (%): 9
--
Compound: Cc1ccc(C(=O)Nc2ccc(Nc3ccnc4cc(-c5ccccn5)ccc34)cc2O)cc1.Cl [GW440146]
Target Or System: SgK110
%Inh (%): 0
--
Compound: Cc1cc(NCC(c2ccccc2)c2ccccc2)nc(NCc2ccc(C(F)(F)F)cc2)n1 [GW497681]
Target Or System: SgK110
%Inh (%): 0
--
Compound: NC(=O)c1nnc2ccccc2c1N
Target Or System: SgK110
%Inh (%): 0
--
Compound: Cl.c1ccc(-c2n[nH]cc2-c2ccnc(-c3ccc(CN4CCOCC4)cc3)c2)nc1 [GW776245]
Target Or System: SgK110
%Inh (%): 0
--
Compound: CC(=O)Nc1nc2cnc(Nc3cc(NC(=O)c4cccc(CCC#N)c4)ccc3C)nc2s1
Target Or System: SgK110
%Inh (%): 13
--
Compound: COc1ccccc1CNC(=O)c1cc(C(=O)c2ccccc2C)c[nH]1 [GSK364507]
Target Or System: SgK110
%Inh (%): 0
--
Compound: CCCc1ccc(S(=O)(=O)NC2CCN(c3ccnc(Nc4ccc(F)cc4)n3)C2)cc1 (centres unmarked) [GSK1379715]
Target Or System: SgK110
%Inh (%): 34

----------
The following compounds are listed with their measured %Inh values.
Tested on: KIT-autoinhibited
Settings: concentration: 1 μM, replicates: in singlicate; n = 1

Compound: Cc1cc(-c2ccc3c(c2)CC[C@@H](N[C@@H](C)c2ccccc2)C3)cnc1N.Cl [GW412617]
%Inh: 0%

Compound: Cc1ccc(C(=O)Nc2ccc(Nc3ccnc4cc(-c5ccccn5)ccc34)cc2O)cc1.Cl [GW440146]
%Inh: 17%

Compound: CCn1c(-c2ccccn2)nc2cnccc21 [SB-736398]
%Inh: 0%

Compound: Fc1cc(Cl)ccc1Nc1ccnc2cc(-c3ccc(CN4CCCCC4)o3)ccc12 [GW560116]
%Inh: 0%

Compound: Cc1cccc(-c2cc(Nc3ccncc3)c3ccccc3n2)n1 [GSK223675]
%Inh: 0%

Compound: COc1ccc(CNC(=O)NC2CCN(c3ccnc(Nc4cc(OC)c(OC)c(OC)c4)n3)C2)cc1 (stereo not shown) [GSK1379748]
%Inh: 0%

Compound: CN1C(=O)C(Nc2ccc(Cl)c(C(=O)O)c2)=C(c2ccc(Cl)cc2)C1=O [SB-404290]
%Inh: 0%

Compound: Cl.O=C(Nc1cccc(-c2nn3ncccc3c2-c2ccnc(Nc3cccnc3)n2)c1)c1c(F)cccc1F [GSK312879]
%Inh: 0%

Compound: O=C(Nc1ccc2c(c1)OCO2)NC1CCN(c2ccnc(Nc3ccc(F)cc3)n2)C1 (stereo not shown) [GSK1379724]
%Inh: 0%

Compound: O=C(Nc1n[nH]c2nc(-c3nccs3)c(Br)cc12)C1CC1 [SB-742251]
%Inh: 0%

Compound: Cn1ccc2ncnc(Oc3ccc(Nc4nc5ccccc5[nH]4)cc3)c21
%Inh: 0%

Compound: O=C(O)COc1ncnc2cc(-c3ccc4[nH]ncc4c3)sc12
%Inh: 30%

Compound: CC(C)(C)c1ccc(C(=O)Nc2cn3cc(Cl)ccc3n2)cc1
%Inh: 42%

Compound: Cc1csc(-c2nc(Nc3ccncc3)c3ccccc3n2)n1 [GW869640]
%Inh: 24%

Compound: Cl.c1ccc(-c2n[nH]cc2-c2ccnc(-c3ccc(CN4CCOCC4)cc3)c2)nc1 [GW776245]
%Inh: 0%

Compound: Cc1ccc(NC(=O)Nc2cc(C(C)(C)C)nn2-c2ccccc2)cc1 [GSK1014915]
%Inh: 0%

Compound: COc1ccc(Nc2nccc(-c3cccc(NC(=O)c4cc5cc(F)ccc5[nH]4)c3)n2)cc1 [GSK1229782]
%Inh: 0%

Compound: Nc1nc(-c2nccs2)c(-c2ccnc3ccccc23)s1 [GW693542]
%Inh: 0%

Compound: O=C(Nc1ccccc1)Nc1cccc(Oc2ccc3nccn3n2)c1
%Inh: 39%
